# inhibition at 30 µM per record follows
- TESTED_TARGET: Nav1.6 (sodium channel protein type 8 subunit alpha) (Homo sapiens)
- Sequence (Q9UQD0 whole entry): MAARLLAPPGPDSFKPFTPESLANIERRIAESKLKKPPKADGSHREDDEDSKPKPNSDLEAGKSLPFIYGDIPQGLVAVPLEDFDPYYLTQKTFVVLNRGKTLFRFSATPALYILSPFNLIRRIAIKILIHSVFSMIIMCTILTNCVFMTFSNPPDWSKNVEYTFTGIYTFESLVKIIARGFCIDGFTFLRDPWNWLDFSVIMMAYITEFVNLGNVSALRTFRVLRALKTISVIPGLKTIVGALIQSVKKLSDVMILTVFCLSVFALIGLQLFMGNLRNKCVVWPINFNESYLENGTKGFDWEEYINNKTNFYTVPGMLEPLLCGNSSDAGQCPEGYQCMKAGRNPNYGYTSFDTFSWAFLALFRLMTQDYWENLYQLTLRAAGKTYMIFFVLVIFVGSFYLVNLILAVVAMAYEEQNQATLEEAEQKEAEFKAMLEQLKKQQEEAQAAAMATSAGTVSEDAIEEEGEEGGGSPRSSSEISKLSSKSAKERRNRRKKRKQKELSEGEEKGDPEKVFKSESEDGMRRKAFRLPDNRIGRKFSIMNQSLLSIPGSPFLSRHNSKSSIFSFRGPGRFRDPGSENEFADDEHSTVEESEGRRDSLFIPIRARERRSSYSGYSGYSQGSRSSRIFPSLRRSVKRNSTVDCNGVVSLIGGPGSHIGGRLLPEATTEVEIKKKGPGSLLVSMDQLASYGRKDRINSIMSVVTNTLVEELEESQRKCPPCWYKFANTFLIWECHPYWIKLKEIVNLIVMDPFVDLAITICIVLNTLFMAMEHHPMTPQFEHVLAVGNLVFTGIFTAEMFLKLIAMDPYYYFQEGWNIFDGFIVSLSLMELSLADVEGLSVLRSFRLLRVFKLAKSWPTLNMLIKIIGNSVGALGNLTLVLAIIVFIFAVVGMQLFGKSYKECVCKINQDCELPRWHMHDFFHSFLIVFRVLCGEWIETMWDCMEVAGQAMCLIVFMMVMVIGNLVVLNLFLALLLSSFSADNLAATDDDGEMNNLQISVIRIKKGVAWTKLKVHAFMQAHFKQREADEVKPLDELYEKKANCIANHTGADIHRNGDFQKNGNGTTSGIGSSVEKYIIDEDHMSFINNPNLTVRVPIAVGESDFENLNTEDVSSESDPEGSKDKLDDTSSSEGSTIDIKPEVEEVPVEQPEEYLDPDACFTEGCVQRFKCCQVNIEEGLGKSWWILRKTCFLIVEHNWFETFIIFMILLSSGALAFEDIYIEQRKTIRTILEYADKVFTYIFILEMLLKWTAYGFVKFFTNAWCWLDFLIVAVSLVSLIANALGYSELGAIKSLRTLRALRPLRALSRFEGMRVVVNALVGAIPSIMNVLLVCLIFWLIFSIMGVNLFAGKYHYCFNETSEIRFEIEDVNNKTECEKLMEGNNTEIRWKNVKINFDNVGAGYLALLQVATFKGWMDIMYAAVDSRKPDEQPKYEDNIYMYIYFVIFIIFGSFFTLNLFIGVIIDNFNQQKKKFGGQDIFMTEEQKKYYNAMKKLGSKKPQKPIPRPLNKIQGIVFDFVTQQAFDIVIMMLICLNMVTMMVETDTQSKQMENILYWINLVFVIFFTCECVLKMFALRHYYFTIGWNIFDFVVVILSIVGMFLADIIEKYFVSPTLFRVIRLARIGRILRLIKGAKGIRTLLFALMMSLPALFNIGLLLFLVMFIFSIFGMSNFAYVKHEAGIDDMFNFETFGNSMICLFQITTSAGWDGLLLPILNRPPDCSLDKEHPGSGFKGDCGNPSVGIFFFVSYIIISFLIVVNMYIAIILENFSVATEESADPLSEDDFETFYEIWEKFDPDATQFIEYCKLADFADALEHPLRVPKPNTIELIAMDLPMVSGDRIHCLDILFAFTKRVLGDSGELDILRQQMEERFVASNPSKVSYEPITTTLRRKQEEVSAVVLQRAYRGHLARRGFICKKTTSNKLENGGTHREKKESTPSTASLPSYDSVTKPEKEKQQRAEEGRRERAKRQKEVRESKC
- ASSAY_NAME: Inhibition of Nav1.6 (unknown origin) at 30 uM relative to control
- Format: toxicity

molecule="CS(=N)(=O)c1cccc(NC(=O)c2cc(C(F)(F)F)cnc2Oc2ccc(F)cc2Cl)c1 (configuration not stated)" result="< 25%"

Consider the additional molecule presented here.
Ask: Entry Cc1cc(F)ccc1Oc1ncc(C(F)(F)F)cc1C(=O)Nc1cccc([S@](C)(=N)=O)c1 needs its inhibition at 30 µM filled in; supply it.
Result: < 25%

----------
# pIC50 per record follows
- TESTED_TARGET: Sodium channel protein type 10 subunit alpha (Homo sapiens, UniProt Q9Y5Y9)
- Sequence (Q9Y5Y9 whole entry): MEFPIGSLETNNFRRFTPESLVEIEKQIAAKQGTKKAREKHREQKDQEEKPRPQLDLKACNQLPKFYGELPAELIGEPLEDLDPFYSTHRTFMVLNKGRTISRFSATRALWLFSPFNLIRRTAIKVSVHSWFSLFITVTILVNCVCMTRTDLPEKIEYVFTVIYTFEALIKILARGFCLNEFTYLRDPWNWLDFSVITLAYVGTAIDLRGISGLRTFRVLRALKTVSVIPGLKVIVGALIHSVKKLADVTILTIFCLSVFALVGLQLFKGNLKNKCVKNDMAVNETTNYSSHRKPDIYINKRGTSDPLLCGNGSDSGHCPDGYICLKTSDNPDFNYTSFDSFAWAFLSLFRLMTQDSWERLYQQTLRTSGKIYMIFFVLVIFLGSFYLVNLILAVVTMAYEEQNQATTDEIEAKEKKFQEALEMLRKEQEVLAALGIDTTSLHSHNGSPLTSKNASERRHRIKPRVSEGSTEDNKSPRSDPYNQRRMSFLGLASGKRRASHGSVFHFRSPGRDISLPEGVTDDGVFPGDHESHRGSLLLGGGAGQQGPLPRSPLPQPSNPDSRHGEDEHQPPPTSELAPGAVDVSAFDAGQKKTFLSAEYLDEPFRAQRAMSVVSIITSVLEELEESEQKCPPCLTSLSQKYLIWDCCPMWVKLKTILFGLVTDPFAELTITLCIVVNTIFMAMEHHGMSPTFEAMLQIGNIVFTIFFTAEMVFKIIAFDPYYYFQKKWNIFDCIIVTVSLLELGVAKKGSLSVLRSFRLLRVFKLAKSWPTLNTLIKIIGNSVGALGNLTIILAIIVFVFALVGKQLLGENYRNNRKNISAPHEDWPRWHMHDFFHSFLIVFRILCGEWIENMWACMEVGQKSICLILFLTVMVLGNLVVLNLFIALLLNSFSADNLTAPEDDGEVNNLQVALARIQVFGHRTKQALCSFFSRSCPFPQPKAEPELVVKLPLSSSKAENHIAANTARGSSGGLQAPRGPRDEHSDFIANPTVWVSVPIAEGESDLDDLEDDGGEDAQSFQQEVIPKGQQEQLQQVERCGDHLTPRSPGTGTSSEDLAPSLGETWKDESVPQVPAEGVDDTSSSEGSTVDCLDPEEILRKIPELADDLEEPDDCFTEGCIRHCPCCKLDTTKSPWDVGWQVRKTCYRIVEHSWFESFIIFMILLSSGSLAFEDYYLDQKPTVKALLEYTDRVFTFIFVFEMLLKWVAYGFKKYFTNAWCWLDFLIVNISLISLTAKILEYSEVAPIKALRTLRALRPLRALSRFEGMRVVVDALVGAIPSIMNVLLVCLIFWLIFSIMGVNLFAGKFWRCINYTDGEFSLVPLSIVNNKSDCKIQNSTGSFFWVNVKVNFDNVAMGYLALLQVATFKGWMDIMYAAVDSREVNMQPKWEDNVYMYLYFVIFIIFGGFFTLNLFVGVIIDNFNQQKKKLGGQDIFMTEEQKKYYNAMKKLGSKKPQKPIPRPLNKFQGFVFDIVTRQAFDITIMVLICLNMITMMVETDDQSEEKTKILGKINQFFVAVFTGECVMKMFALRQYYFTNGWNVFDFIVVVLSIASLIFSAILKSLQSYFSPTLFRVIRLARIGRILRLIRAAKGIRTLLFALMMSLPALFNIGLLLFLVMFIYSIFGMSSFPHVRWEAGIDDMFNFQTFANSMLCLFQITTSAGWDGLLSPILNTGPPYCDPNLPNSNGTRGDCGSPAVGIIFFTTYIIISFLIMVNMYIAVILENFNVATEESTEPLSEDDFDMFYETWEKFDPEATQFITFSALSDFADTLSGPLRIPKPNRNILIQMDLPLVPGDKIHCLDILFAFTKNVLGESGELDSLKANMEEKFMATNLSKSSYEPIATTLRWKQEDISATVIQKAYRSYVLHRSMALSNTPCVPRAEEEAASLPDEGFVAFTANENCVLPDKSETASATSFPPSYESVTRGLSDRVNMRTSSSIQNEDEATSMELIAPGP
- ASSAY_NAME: Inhibition of human Nav1.8 with resting membrane potential by PatchXpress high-throughput electrophysiology method
Please note pIC50 is a logarithmic value: minus log10 of concentration in mol/L. Answer with that number alone.

compound="CS(=N)(=O)c1cccc(NC(=O)c2cc(C(F)(F)F)cnc2Oc2ccc(F)cc2Cl)c1 (configuration not stated)" reported_property=pIC50 number=7.37

Consider the additional compound presented here.
Ask: Entry Cc1cc(F)ccc1Oc1ncc(C(F)(F)F)cc1C(=O)Nc1cccc([S@](C)(=N)=O)c1 needs its pIC50 filled in; supply it.
Result: 7.28
